# targetDesc: DPP-4 (manufactured by Sigma, derived from porcine kidney) (porcine, UniProt P22411 38-766, limits assumed)
# Sequence (P22411 38-766 limits assumed): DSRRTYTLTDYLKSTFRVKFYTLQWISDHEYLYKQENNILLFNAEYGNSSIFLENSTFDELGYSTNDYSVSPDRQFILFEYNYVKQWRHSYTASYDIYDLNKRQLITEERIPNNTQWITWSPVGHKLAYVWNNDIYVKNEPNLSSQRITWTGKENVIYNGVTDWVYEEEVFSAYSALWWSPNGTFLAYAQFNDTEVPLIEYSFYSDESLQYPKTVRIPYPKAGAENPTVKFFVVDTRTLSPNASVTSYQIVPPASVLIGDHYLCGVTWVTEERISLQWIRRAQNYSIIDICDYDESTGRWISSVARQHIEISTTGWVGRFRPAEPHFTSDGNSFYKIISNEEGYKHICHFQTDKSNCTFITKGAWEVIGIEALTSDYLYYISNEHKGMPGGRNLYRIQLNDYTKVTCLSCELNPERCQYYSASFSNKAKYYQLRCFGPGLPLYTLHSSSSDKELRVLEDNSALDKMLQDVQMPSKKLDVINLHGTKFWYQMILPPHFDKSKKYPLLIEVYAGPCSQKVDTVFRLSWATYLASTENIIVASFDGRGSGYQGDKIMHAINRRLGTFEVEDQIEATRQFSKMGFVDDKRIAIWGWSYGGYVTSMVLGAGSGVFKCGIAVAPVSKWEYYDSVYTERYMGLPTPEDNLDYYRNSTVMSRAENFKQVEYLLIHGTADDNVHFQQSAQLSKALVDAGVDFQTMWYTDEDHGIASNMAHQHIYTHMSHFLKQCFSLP
# assayExplanation: cell-based or functional assay
Square brackets hold non-standard residues; d marks the D form. Ends that are not written are not given here. Hyp = O=C(O)[C@@H]1C[C@@H](O)CN1
Each record gets a class by IC50 value: low interval = under 0.1 µmol/mL, middle interval = from 0.1 µmol/mL up to 0.8 µmol/mL, high interval = 0.8 µmol/mL and over

Worked cases, answers included:
binder="LP [Leu-Pro]" classification="middle interval"
binder="L[Hyp]GPA [Leu-Hyp-Gly-Pro-Ala]" classification="high interval"
binder="LPG [Leu-Pro-Gly]" classification="low interval"
binder="Leu-[Hyp] [Leu-Hyp]" classification="high interval"
binder="Pro-[Hyp]-Gly [Pro-Hyp-Gly]" classification="high interval"

Textbook exercise: identify the category of the binder given here, Ala-[Hyp]-Gly [Ala-Hyp-Gly] , according to its measured value.
high interval

The reported measurements were obtained from patent US9340579B2.
